Biological target: κOR (Homo sapiens)
Construct: host or cells: CHO-K1
Sequence (P41145 whole entry): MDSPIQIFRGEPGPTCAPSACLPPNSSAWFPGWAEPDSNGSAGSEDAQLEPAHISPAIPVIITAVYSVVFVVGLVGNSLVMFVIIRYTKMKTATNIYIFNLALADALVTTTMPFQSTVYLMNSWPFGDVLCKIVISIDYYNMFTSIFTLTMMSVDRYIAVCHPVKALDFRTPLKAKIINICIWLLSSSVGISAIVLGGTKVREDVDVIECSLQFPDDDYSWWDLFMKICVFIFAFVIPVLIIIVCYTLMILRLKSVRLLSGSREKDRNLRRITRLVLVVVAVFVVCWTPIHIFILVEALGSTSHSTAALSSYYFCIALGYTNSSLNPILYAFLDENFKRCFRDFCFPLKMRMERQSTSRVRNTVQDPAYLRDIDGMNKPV
Test: cell-based
Format: cell-based
Conditions: read-out: κOR cAMP inhibition Emax ± SEM (%)
observation type: Emax (%)
Just the number in %, nothing appended.

Record excerpt, results attached:
C=CC[N+]12CCC34C(=C(C(=O)OC)C(CC31)C(=CC)C2)Nc1ccc(Br)cc14 (stereo not drawn) [Compound 24, 10-Bromo-N-4-allylakuammicine] : 100
C/C=C1/CN2CC[C@]34C(=C(C(=O)OC)[C@H]1C[C@H]23)Nc1ccc(-c2ccsc2)cc14 [Compound 6, 10-(3-Thienyl)akuammicine] : 104

For C/C=C1/CN2CC[C@]34c5cc(Br)ccc5NC3C(C(=O)OC)[C@H]1C[C@H]24 (stereo partly drawn) [Compound 21, 10-Bromo-2,16-dihydroakuammicine] , what is its reported Emax?
100
